- assay overview: total protein half-life in vivo (active degradation + dilution); higher = more stable protein
- run conditions: wild type E. coli NCM3722; growth: P-lim chemostat; doubling time 6 h
Consider the following sequences; for each one, report its total protein half-life in vivo.
Report only the number, with the unit h understood.

Query :: Which value of total protein half-life in vivo has been reported for MTVKQTVEITNKLGMHARPAMKLFELMQGFDAEVLLRNDEGTEAEANSVIALLMLDSAKGRQIEVEATGPQEEEALAAVIALFNSGFDED [P0A9N0] in the records?
Result :: 2.35

Query :: Which value of total protein half-life in vivo has been reported for MGGISIWQLLIIAVIVVLLFGTKKLGSIGSDLGASIKGFKKAMSDDEPKQDKTSQDADFTAKTIADKQADTNQEQAKTEDAKRHDKEQV in the records?
Result :: 4.41

Query :: Which value of total protein half-life in vivo has been reported for MSIEIANIKKSFGRTQVLNDISLDIPSGQMVALLGPSGSGKTTLLRIIAGLEHQTSGHIRFHGTDVSRLHARDRKVGFVFQHYALFRHMTVFDNIAFGLTVLPRRERPNAAAIKAKVTKLLEMVQLAHLADRYPAQLSGGQKQRVALARALAVEPQILLLDEPFGALDAQVRKELRRWLRQLHEELKFTSVFVTHDQEEATEVADRVVVMSQGNIEQADAPDQVWREPATRFVLEFMGEVNRLQGTIRGGQFHVGAHRWPLGYTPAYQGPVDLFLRPWEVDISRRTSLDSPLPVQVLEASPKGHYTQLVVQPLGWYNEPLTVVMHGDDAPQRGERLFVGLQHARLYNGDERIETRDEELALAQSA in the records?
Result :: 2.65

Query :: Which value of total protein half-life in vivo has been reported for MIVRPQQHWLRRIFVWHGSVLSKISSRLLLNFLFSIAVIFMLPWYTHLGIKFTLAPFSILGVAIAIFLGFRNNAGYARYVEARKLWGQLMIASRSLLREVKTTLPDSASVREFARLQIAFAHCLRMTLRKQPQAEVLAHYLKTEDLQRVLASNSPANRILLIMGEWLAVQRRNGQLSDILFISLNDRLNDISAVLAGCERIAYTPIPFAYTLILHRTVYLFCIMLPFALVVDLHYMTPFISVLISYTFISLDCLAEELEDPFGTENNDLPLDAICNAIEIDLLQMNDEAEIPAKILPDRHYQLT in the records?
Result :: 5.86
